# Test system: P. falciparum NF54-pfs16-GFP late (IV-V) stage gametocytes
# Experiment summary: relative % inhibition of viable gametocyte number; higher = more gametocytocidal
# Cond: 0.5 µM; stage: late (IV-V) gametocyte; incubation 72 h
Short version: relative % inhibition at least 20% is met, less is not met.

Reference set, count: 3
compound=CCn1c2c(c(=N)c3c1CCC3)CCCC2 qualitative_label="not met"
compound=CN1c2ccccc2N(C)C1c1ccc2c(c1)OCO2 qualitative_label=met
compound="O=C(CCc1ccccc1)c1ccccc1OCC(O)CN1CCCCC1 (stereo unspecified)" qualitative_label="not met"

Determine whether this compound has relative % inhibition no lower than 20%: CC1CC2=C(CC1CNCCCN(C)C)C(C)(C)CCC2 (stereo unspecified)
met

Is it the case that CCCCCCC(O)(c1ccc(F)cc1)C(CN1CCOCC1)c1ccccc1 (stereo unspecified) has relative % inhibition reaching or exceeding 20%?
not met

# check: relative % inhibition of Cc1ccccc1OCCSc1nc2ccc(NC(=O)c3cccs3)cc2s1 is greater than or equal to 20%
not met

Could you verify whether the entry COc1ccc(-c2cc3c(SCC(=O)Nc4cc(C(F)(F)F)ccc4Cl)nccn3n2)cc1 shows relative % inhibition of no less than 20%?
not met

Kindly determine if relative % inhibition recorded for COc1ccc(-n2ccnc2SCC(=O)Nc2cc(C)ccc2C)c(OC)c1 is above or exactly 20%.
not met

Could you tell me if the measured relative % inhibition of CCN(CC)CCNc1ncnc2c1[nH]c1ccc(Br)cc12 reaches 20% or more?
not met

Does the reported relative % inhibition for COc1ccc(NC(=O)C2c3ccccc3C(=O)N(CC(C)C)C2c2cccs2)cc1 (stereo unspecified) fall at or above the 20% mark?
met

Textbook exercise: given the entry COc1cc2c(cc1OC)C1=NNC(=O)C1=NC(C)(C)C2 , state whether its relative % inhibition is greater than or equal to 20%.
met

----------
The entries below come with measured relative % inhibition values attached.
# Tested on: P. falciparum NF54-pfs16-GFP late (IV-V) stage gametocytes
# Experiment summary: relative % inhibition of viable gametocyte number; higher = more gametocytocidal
# Cond: 0.5 µM; stage: late (IV-V) gametocyte; incubation 72 h
Respond with a number, then the unit of measure.

molecule=COc1ccc(C(=O)Nc2nonc2-c2ccc(OC)c(OC)c2)cc1Cl measured_on="P. falciparum NF54-pfs16-GFP late (IV-V) stage gametocytes" readout="relative % inhibition" measured_result=13.1%

API: value(readout= relative % inhibition, system= P. falciparum NF54-pfs16-GFP late (IV-V) stage gametocytes, query= CCOC(=O)c1cnc2ccc(CC)cc2c1O )
73.6%

Param readout= relative % inhibition; system= P. falciparum NF54-pfs16-GFP late (IV-V) stage gametocytes; entry= COc1ccc2c(c1)OC(O)(C(F)(F)C(F)(F)F)CC2=O (stereo unspecified) ; returns value.
8.91%

# returns recorded relative % inhibition (system: P. falciparum NF54-pfs16-GFP late (IV-V) stage gametocytes) for COc1ccc(C2Sc3ccccc3N=C3C2=C(O)c2ccccc23)cc1 (stereo unspecified)
24%

Quick check: relative % inhibition on P. falciparum NF54-pfs16-GFP late (IV-V) stage gametocytes, item COc1ccccc1N1CCN(C(CNS(=O)(=O)c2ccc(Cl)cc2)c2cccnc2)CC1 (stereo unspecified) ?
-0.978%

Item O=C(Nc1ccccc1O)c1ccc(Oc2cccc(C(=O)Nc3ccccc3O)c2)cc1 with P. falciparum NF54-pfs16-GFP late (IV-V) stage gametocytes - relative % inhibition?
14.1%

----------
# Test system: P. falciparum NF54-pfs16-GFP early (I-III) stage gametocytes
# Experiment summary: relative % inhibition of viable gametocyte number; higher = more gametocytocidal
# Cond: 0.5 µM; stage: early (I-III) gametocyte; incubation 72 h
Assign 1 whenever relative % inhibition does not fall below 10%; assign -1 whenever it does.

compound=CCOc1ccc2c(c1)CN(Cc1ccc(Cl)cc1)CO2 qualitative_label=1
compound=Nc1ccc(-c2nc3cc(Cc4ccc5[nH]c(-c6ccc(N)cc6)nc5c4)ccc3[nH]2)cc1 qualitative_label=1
compound=O=C(Nc1ccc(Br)cc1)Nc1cccc(Cl)c1 qualitative_label=1

State whether the measured relative % inhibition reaches 10%, counting equality as reaching it, for Cc1cc(NC(=O)c2cccc(C(F)(F)F)c2)n(-c2nc(-c3ccc4c(c3)OCO4)cs2)n1
-1

Test whether the compound CCOC(=O)C1=C(c2ccccc2)N=c2sc(=Cc3cc(C)n(-c4ccc(F)cc4)c3C)c(=O)n2C1c1cccc(OC)c1OC (stereo not given) records relative % inhibition of 10% or higher.
1

In plain terms: is recorded relative % inhibition at least 10% for CC1CCN(Cc2ccc(NC(=O)c3cc4ccc5cccnc5c4[nH]3)cc2)CC1 ?
1

Is relative % inhibition for COc1cc(SC)ccc1C(=O)N1CCCC(C)C1 (stereo not given) at or above 10%?
-1

Given the entry CCCCOc1ccc(C(=O)Nc2cc(C)on2)cc1 , answer whether its relative % inhibition meets or surpasses 10%.
-1

Record O=C(NC(c1ccccc1)c1ccc2cccnc2c1O)c1ccccc1 (stereo not given) ; criterion: relative % inhibition no lower than 10%. Met?
1

Exam item: decide whether the reported relative % inhibition for COc1ccc(-c2nc(N3CCN(C(=O)C4CCCCC4)CC3)c3c4c(sc3n2)CCCC4)cc1 is at least 10%.
-1

Please indicate if the recorded relative % inhibition for COc1ccc(C2c3ccc4ccccc4c3Oc3ncn(CCCN(C)C)c(=N)c32)cc1 (stereo not given) meets or exceeds 10%.
1

Is relative % inhibition for CCCCCC(=O)N1c2ccccc2N=C2CC(c3ccc(OC)c(OC)c3)CC(O)=C2C1c1ccc(C(F)(F)F)cc1 (stereo not given) at or above 10%?
1

Hi team, for COc1cccc(NC(=O)[C@H](C(C)C)n2c(=O)[nH]c3ccccc3c2=O)c1 , is the recorded relative % inhibition at or above 10%?
1

Confirm if relative % inhibition reported for the compound CC(C)(C)CC(C)(C)NCC(O)COc1ccc(Cl)cc1Cl (stereo not given) is 10% or above.
1

Please tell me: is the compound CCOC(=O)C1(Cc2ccccc2)CCN(Cc2cccc(OC)c2O)CC1 at or over 10% in terms of relative % inhibition?
1

Exam item: decide whether the reported relative % inhibition for O=C(CSc1nccn2nc(-c3ccccc3)cc12)Nc1cc(C(F)(F)F)ccc1Cl is at least 10%.
-1

Does the compound CC(Oc1ccc(NC(=O)c2cccs2)cc1)C(=O)c1ccc(Cl)cc1 (stereo not given) have recorded relative % inhibition that is 10% or more?
1

Reported relative % inhibition at or above 10%? COc1ccc(CNC2CCN(c3ccc(NC(=O)c4cccc(Cl)c4)cc3)CC2)cc1OC
-1

Test whether the compound COc1cccc(Nc2nc(N)c3ccccc3n2)c1 records relative % inhibition of 10% or higher.
-1

Is relative % inhibition at least 10%? Consider COc1cc2c3cc1Oc1c(OC)c(OC)cc4c1C(Cc1ccc(O)c(c1)Oc1ccc(cc1)CC3N(C)CC2)N(C)CC4 (stereo not given)
-1

----------
# Test system: P. falciparum NF54-pfs16-GFP late (IV-V) stage gametocytes
# Experiment summary: relative % inhibition of viable gametocyte number; higher = more gametocytocidal
# Cond: 5 µM; stage: late (IV-V) gametocyte; incubation 72 h
Readout: relative % inhibition (%)
Give just the number in %; leave the unit off.

Here's what some known entries look like.
structure_smiles_string=COc1ccc(C(=O)Nc2nonc2-c2ccc(OC)c(OC)c2)cc1Cl unit_info=% measured_result=59.1
structure_smiles_string=Cc1ccc(S(=O)(=O)c2c(COC(=O)c3cccc(C)c3)c(-c3ccccc3)nn2C)cc1 unit_info=% measured_result=20.4

// next item, relative % inhibition requested
Fill in the blank: the reported relative % inhibition of CCCc1c(C)nc2ccc(Br)cc2c1O is ____.
59.8

----------
Listed molecules paired with reported relative % inhibition
# System: P. falciparum NF54-pfs16-GFP early (I-III) stage gametocytes
# Experiment summary: relative % inhibition of viable gametocyte number; higher = more gametocytocidal
# Cond: 0.5 µM; stage: early (I-III) gametocyte; incubation 72 h
Provide the reading as a plain figure in %.

structure_smiles_string=CC(C)(C)c1ccc2c(c1)CN(Cc1ccc(Cl)cc1)CO2 readout="relative % inhibition" measured_result=9.71
structure_smiles_string=Cc1ccc(-c2nc3ccccc3o2)cc1NCc1cc(Cc2ccccc2)ccc1O readout="relative % inhibition" measured_result=9.8

Then this molecule:
GET /values?readout=relative % inhibition&item= O=C(Nc1cccc(C2=NCCN2)c1)Nc1cccc(C2=NCCN2)c1
9.97

----------
This section presents compounds with their documented relative % inhibition values.
# System: P. falciparum NF54-pfs16-GFP late (IV-V) stage gametocytes
# Experiment summary: relative % inhibition of viable gametocyte number; higher = more gametocytocidal
# Cond: 5 µM; stage: late (IV-V) gametocyte; incubation 72 h
Please reply with the bare figure in % and do not write the unit itself.

Answered examples (8):
compound="CC1CC2=C(CC1CNCCCN(C)C)C(C)(C)CCC2 (centres undefined)" measured_result=85.3
compound=c1ccc2cc3c(Nc4ccc(N5CCOCC5)cc4)ccnc3cc2c1 measured_result=36.1
compound="COc1ccc(C2NCCc3c2[nH]c2ccccc32)cc1CN1CCN(c2ccc(F)cc2)CC1 (centres undefined)" measured_result=58
compound=Cc1ccc(-c2cc(C(=O)Nc3ccc(S(=O)(=O)N4CCCCC4)cc3)[nH]n2)c(O)c1 measured_result=2.43
compound="COc1ccc(C(O)(CCC(C)C)C(CN2CCOCC2)c2ccc(Cl)cc2)cc1 (centres undefined)" measured_result=25
compound=CCN(CC)CCNc1ncnc2c1[nH]c1ccc(Br)cc12 measured_result=27.1
compound="CCCCCCC(O)(c1ccc(F)cc1)C(CN1CCOCC1)c1ccccc1 (centres undefined)" measured_result=33.1
compound=Cc1ccc(F)cc1NC(=O)c1cc(Cl)ccc1Nc1ccccc1 measured_result=46.8

Please look at the following compound next.
I am curious: what relative % inhibition value has been reported for COc1ccccc1N1C(=N)SC(=Cc2ccc(OCc3ccccc3F)cc2)C1=O ?
69.4
